Test system: keratinization of hamster tracheal epithelium (tracheal organ culture, vitamin A deficiency)
Assay: Reversal of keratinization in tracheal organ culture
Assay type: cell-based
Details: Mesocricetus auratus, 240 h, read-out: ED50 (molar dose effective in suppressing keratinization in one-half of the cultures)
ENDPOINT LABEL: IC50 (nM)
Numbers only here, please. The scale is nM.

**Q:** Need IC50, item CC1=C(/C=C/C(C)=C/C=C/C(C)=C/C(=O)O)C(C)(C)CCC1 [all-E-retinoic acid, reference compound]
**A:** 0.03
